All figures here come from paper PMC11435058.

System: DU-145
Assay: NCI-60 anticancer screen (SRB; single dose and five doses)
Conditions: Homo sapiens, DU-145, read-out: LC50
measuredAttribute: CC50

Worked examples, 7 molecules total:
molecule	testSystem	CC50
COc1cc(/C=C/C(=O)c2sc(=S)[nH]c2C)cc(OC)c1OC [2p]	DU-145	69.2 µM
Cc1[nH]c(=S)sc1C(=O)/C=C/c1ccc([N+](=O)[O-])cc1 [2i]	DU-145	34.5 µM
COc1ccc(/C=C\c2cc(OC)c(OC)c(OC)c2)cc1O [CA-4, Combretastatin-A4, reference compound]	DU-145	> 100 µM
Cc1[nH]c(=S)sc1C(=O)/C=C/c1ccc(F)cc1 [2c]	DU-145	39.9 µM
Cc1[nH]c(=S)sc1C(=O)/C=C/c1ccc(Cl)cc1 [2f]	DU-145	42.7 µM
Cc1[nH]c(=S)sc1C(=O)/C=C/c1ccc(Br)cc1 [2g]	DU-145	35.3 µM
Cc1[nH]c(=S)sc1C(=O)/C=C/c1cccc([N+](=O)[O-])c1 [2h]	DU-145	23.4 µM

INPUT: Supply measured CC50 of Cc1[nH]c(=S)sc1C(=O)/C=C/c1cccc(Cl)c1 [2e] in your reply.
OUTPUT: 42.7 µM

* * *

System: HCT-15
Test: NCI-60 anticancer screen (SRB; single dose and five doses)
Conditions: Homo sapiens, HCT-15, read-out: LC50
Record form. Attribute: CC50. Fill in for each entry.
Give bare numbers, in µM.

Worked examples, 5 molecules total:
Cc1[nH]c(=S)sc1C(=O)/C=C/c1ccc(Br)cc1 36.4
Cc1[nH]c(=S)sc1C(=O)/C=C/c1cccc(Cl)c1 46.8
Cc1[nH]c(=S)sc1C(=O)/C=C/c1ccc(F)cc1 43.7
Cc1[nH]c(=S)sc1C(=O)/C=C/c1cccc([N+](=O)[O-])c1 31.6
COc1cc(/C=C/C(=O)c2sc(=S)[nH]c2C)cc(OC)c1OC 74.1

For each entry beneath this line, provide reported CC50.
1. Cc1[nH]c(=S)sc1C(=O)/C=C/c1ccc([N+](=O)[O-])cc1
2. Cc1[nH]c(=S)sc1C(=O)/C=C/c1ccc(Cl)cc1

OUTPUT:
1. 33.7
2. 49

* * *

System: TK-10
Experiment: NCI-60 anticancer screen (SRB; single dose and five doses)
Conditions: Homo sapiens, TK-10, read-out: LC50
Record form. Attribute: CC50. Fill in for each entry.

Worked examples, 7 compounds total:
compound	resultValue
Cc1[nH]c(=S)sc1C(=O)/C=C/c1ccc(Br)cc1 [2g]	35.2 µM
COc1ccc(/C=C\c2cc(OC)c(OC)c(OC)c2)cc1O [CA-4, Combretastatin-A4, reference compound]	> 100 µM
Cc1[nH]c(=S)sc1C(=O)/C=C/c1ccc(F)cc1 [2c]	50.7 µM
Cc1[nH]c(=S)sc1C(=O)/C=C/c1cccc([N+](=O)[O-])c1 [2h]	50.1 µM
COc1cc(/C=C/C(=O)c2sc(=S)[nH]c2C)cc(OC)c1OC [2p]	47.9 µM
Cc1[nH]c(=S)sc1C(=O)/C=C/c1cccc(Cl)c1 [2e]	> 100 µM
Cc1[nH]c(=S)sc1C(=O)/C=C/c1ccc(Cl)cc1 [2f]	55 µM

INPUT: Supply measured CC50 of Cc1[nH]c(=S)sc1C(=O)/C=C/c1ccc([N+](=O)[O-])cc1 [2i] in your reply.
OUTPUT: 51.3 µM
